assayMethodText: folding stability dG unfold from chymotrypsin proteolysis; higher = more stable
# folding stability dG unfold >= 3 kcal/mol gives Satisfied, anything below gives Not satisfied

> print(dat)
                                  seqstring    answerlabel
1  SAGGSAGGSGMVEEEEYEDPATGVRTRTTTTYLPNGTVVRTPVVYTPDRPVEEVPTVTPIPSGSAGGSAGGS [r20_88_JUSTAS]  Not satisfied
2  SAGGSAGGSAGVITVTKDPKTGKYTVTIETPSGPATTVEVSSEEEAKELAKKLGYDIDALSAGGSAGGSAGG [r11_1049_JUSTAS]      Satisfied
3  SAGGKKKLVEITIKVPPGMTVEELIAEIAKKLPPGAKIVKVEYDKETKEIKIIVYDEKTKKKIEIKFSAGGS [r16_250_TrROS_Hall]  Not satisfied
4  SAGGSAGGSISIDPAKVLEVKTRANGQLLITTEDEVYVVDPSTGTVTKITKEEAEKLPEDVPLLSAGGSAGG [r6_890_JUSTAS]  Not satisfied
5  SAGMTIEELRSLPPGARVTSVEYDEETEEVTVTVERTREDGKTETLTLTFRSREELEAALKAGADRIVFSAG [r5_905_TrROS_Hall]  Not satisfied
6  SAGGSAGGSEEREYVEVEFEFLARLEDGSLLVTRVRLLLPAEPAELRPEVRSEVLPLAPGEELSAGGSAGGS [r12_811_TrMRF]  Not satisfied
